# Test system: SC27B
# experimental_details: qHTS profiling for inhibitors of Plasmodium falciparum proliferation (AID 504749); further: nearly all actives have a fitted effect of over 60% in size
# run_parameters: P. falciparum in erythrocytes, SYBR Green DNA, 72 h; series mostly up to 28.7 µM
Records with an inconclusive call do not appear. Activity calls are given as the source filed them. The call rests on the fitted dose curve; in most records, active means well fitted inhibition curve with a large enough effect; inconclusive means small, poorly fitted or top-dose-only effect; inactive means flat fitted curve, though single readings scatter.
quantity_measured: outcome

O=C(O)CC(O)C(=O)O (stereo not drawn)
inactive
COc1ccc(S(=O)(=O)Nc2nnc(CC(C)C)s2)cc1
inactive
Oc1cccc(O)c1
inactive
CCC(=O)Nc1ccc(O)cc1
inactive
CNCCCC1c2ccccc2C=Cc2ccccc21
inactive
C[C@](N)(Cc1ccc(O)cc1)C(=O)O
inactive

Incoming: What value of outcome has been recorded for this entry: `CC12CCC(CC1)C(C)(C)O2`
Outgoing: inactive

Incoming: What value of outcome has been recorded for this entry: CC(=O)NC(Cc1ccccc1)C(=O)O (stereo not drawn)
Outgoing: inactive

Incoming: What value of outcome has been recorded for this entry: `Nc1nc2c(ncn2CCC(CO)CO)c(=O)[nH]1`
Outgoing: inactive
